These entries and their values trace back to PubChem BioAssay (NCI).

- Tested on: HT29 colon
- test_details: NCI tumour cell line growth inhibition, 48 h
property_label: TGI

Form field - read-out: TGI; system: HT29 colon; submitted item: Cc1ccc(NC(=O)C(=O)C2NC(=S)NC2=O)c([N+](=O)[O-])c1 (stereo not drawn) > 100 µM

And c1nc(SSc2ncnc3nc[nH]c23)c2[nH]cnc2n1 ? > 100 µM

And COc1cc(-n2cc(-c3ccc(F)cc3)[nH]c2=S)cc(OC)c1OC ? > 100 µM

---

- Tested on: COLO 205 colon
- test_details: NCI tumour cell line growth inhibition, 48 h
property_label: TGI

Quick one: TGI of COc1cc(C=Nc2ccc(S(N)(=O)=O)cc2)cc(OC)c1 ? > 50 µM

And O=C(CC/C(CC(=O)c1ccc(Cl)cc1)=N/O)Nc1ccc(Cl)c(Cl)c1 ? > 100 µM

And COc1ccc(-c2oc3cc(OC)c(OC)c(OC)c3c(=O)c2OC)cc1OC ? > 100 µM

And COc1cc(OC)c2cc(C(=O)O)c(=O)oc2c1 ? > 100 µM
